Target: T1, TIAM2, Q8IVF5
T1 sequence (Q8IVF5 885-986, limits assumed, looked up): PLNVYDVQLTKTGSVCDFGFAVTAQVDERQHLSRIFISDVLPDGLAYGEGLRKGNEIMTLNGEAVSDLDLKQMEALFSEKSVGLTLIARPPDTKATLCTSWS
Experiment: holdup assay
Parameters: key: below the threshold = too weak to quantify, mostly under pKd 3.1 to 4
Settings: plain residues with an end cap or a label only (N-terminal biotin on a linker: ado-ado)
Property Measured: pKd

                                     binder  measurement
0  KRPEMTSSSV [MUC3A, MUC3B, Q02505;Q9H195]         1.96
1                 STKRKLASAV [NCF1, P14598]         3.75
2                 QKAPTKEFYA [SDC2, P34741]         4.34
3                 DRIQSCLSDA [SBF1, O95248]         4.03
4              PSHPRLQTHV [KIRREL2, Q6UWL6]         3.73
5                AQRARSPSDV [GPR12, P47775]         4.05
